# procedureSummary: Kinetic aqueous solubility
# Assay type: physicochemical
# assaySetup: aqueous medium (not further specified)
A collection of compounds and their measured solubility kinetic
endpoint: solubility kinetic (µM)

| molecularString | experimentalResult |
| --- | --- |
| CNc1cc(F)cc2c1[nH]c1nc(Oc3cnc(C)nc3)nc(N3CCC4(CC3)CO[C@@H](CO)C4)c12 | 0.576 |
| CNc1cc(F)cc2c1[nH]c1nc(Oc3cnc(C)nc3)nc(N3CCC4(CC3)CO[C@@H](COP(=O)(O)O)C4)c12 | 440 |

---

Examples of molecules with documented MIC follow.
# Tested on: N. gonorrhoeae clinical isolates
# procedureSummary: MIC, agar dilution (CLSI)
# Format: cell-based, Neisseria gonorrhoeae
# assaySetup: Neisseria gonorrhoeae, strain CDC50 (GCREF2012 048); read-out: MIC

| molecularString | MIC / µg/mL |
| --- | --- |
| C=CC1=C(C(=O)O)N2C(=O)[C@@H](NC(=O)/C(=N\OCC(=O)O)c3csc(N)n3)[C@H]2SC1 | 0.25 |
| CO/N=C(\C(=O)N[C@@H]1C(=O)N2C(C(=O)O)=C(CSc3nc(=O)c(=O)[nH]n3C)CS[C@H]12)c1csc(N)n1 | 0.063 |
| CC[C@H]1OC(=O)[C@H](C)[C@@H](O[C@H]2C[C@@](C)(OC)[C@@H](O)[C@H](C)O2)[C@H](C)[C@@H](O[C@@H]2O[C@H](C)C[C@H](N(C)C)[C@H]2O)[C@](C)(O)C[C@@H](C)CN(C)[C@H](C)[C@@H](O)[C@]1(C)O | 0.25 |
| CNc1cc(F)cc2c1[nH]c1nc(Oc3cnc(C)nc3)nc(N3CCC4(CC3)CO[C@@H](CO)C4)c12 | 0.0078 |
